Target: T1, Human MuSK (R&D Systems, cat. 10189-MK, histidine tag) (human, UniProt O15146 24-495)
T1 construct: Bought protein; also called human monomeric MuSK-6xhis; not shown: histidine tag (6xhis)
T1 sequence: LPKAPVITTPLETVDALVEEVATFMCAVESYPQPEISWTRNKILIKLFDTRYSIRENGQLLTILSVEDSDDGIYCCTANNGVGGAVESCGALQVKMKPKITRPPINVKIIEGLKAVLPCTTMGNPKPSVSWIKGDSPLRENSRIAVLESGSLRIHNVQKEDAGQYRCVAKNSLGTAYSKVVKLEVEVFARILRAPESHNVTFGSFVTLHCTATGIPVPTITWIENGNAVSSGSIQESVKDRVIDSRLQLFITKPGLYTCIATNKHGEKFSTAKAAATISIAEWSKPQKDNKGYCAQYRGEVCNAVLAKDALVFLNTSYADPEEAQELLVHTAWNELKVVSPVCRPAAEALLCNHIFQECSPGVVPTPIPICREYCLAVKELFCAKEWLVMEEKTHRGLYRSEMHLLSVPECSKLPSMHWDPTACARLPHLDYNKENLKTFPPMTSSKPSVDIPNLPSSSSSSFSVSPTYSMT
Experiment: SPR (Biacore), MuSK-coated chip presaturated with 500 nM 3D9b (competitor)
endpoint-label: amplitude of prelead after presaturating MuSK (RU)
Number in RU, nothing else.

Sample answers from the record:
1. 3D9b (antibody, human IgG1, kappa, L234A L235A, V domains shown) VH: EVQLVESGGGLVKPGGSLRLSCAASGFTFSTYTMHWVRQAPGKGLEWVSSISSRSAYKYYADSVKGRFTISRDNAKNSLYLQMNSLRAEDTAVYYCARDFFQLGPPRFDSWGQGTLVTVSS VL: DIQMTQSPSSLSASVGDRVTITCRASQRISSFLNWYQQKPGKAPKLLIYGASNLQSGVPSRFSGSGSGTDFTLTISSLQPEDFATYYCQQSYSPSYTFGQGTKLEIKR = 40
2. 3D10a (antibody, human IgG1, kappa, L234A L235A, V domains shown) VH: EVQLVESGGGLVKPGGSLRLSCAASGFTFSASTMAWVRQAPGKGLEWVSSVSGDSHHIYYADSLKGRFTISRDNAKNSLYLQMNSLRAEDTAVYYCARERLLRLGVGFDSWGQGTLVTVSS VL: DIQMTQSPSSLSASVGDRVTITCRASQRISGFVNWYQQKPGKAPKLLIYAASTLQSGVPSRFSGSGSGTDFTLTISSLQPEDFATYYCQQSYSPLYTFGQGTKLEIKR = -1
3. 3F6c (antibody, human IgG1, kappa, L234A L235A, V domains shown) VH: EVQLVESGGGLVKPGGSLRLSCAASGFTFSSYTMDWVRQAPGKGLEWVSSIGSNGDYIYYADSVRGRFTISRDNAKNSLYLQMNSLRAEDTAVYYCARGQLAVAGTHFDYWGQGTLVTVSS VL: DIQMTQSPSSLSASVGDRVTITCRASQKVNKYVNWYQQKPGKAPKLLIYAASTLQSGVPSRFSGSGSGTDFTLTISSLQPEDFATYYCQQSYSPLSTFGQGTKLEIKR = -5

Note: attention shifts to another entry.
Fill blank: measured amplitude of prelead after presaturating MuSK (RU) of the binder 4D3 (antibody, human IgG1, kappa, L234A L235A, V domains shown) VH: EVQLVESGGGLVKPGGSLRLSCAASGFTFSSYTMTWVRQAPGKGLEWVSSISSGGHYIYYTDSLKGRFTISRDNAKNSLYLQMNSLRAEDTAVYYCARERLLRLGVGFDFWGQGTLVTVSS VL: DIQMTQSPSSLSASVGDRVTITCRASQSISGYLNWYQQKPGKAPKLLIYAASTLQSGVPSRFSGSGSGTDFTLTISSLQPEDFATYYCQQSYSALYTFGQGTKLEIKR is ____. -3

Values from patent US20230110188A1
